- PROCEDURE TEXT: Cytotoxicity assay on L6-cells (Alamar Blue)
- EXPERIMENTAL CONDITIONS: rat, Cytotox L6, Cytotoxicity against rat myoblast cells (L6)
Non-standard residues stand in square brackets, D forms with d. Residues, ends and D or L forms follow the SMILES beside them. *: point of attachment. Gly(octyl) = CCCCCCCC[C@H](N)C(=O)O; Hexanoyl = CCCCCC(=O)*; X1 = CN(C)C1CCC(N*)CC1; Aib = CC(C)(N)C(=O)O; X6 = CCCN(CCC)CCN*; βAla = NCCC(=O)O
METRIC: IC50 at 70 h (nM)

>>> result_value("CCCCCCCC[C@H](NC(=O)[C@@H]1CCCN1C(=O)CCCCC)C(=O)N[C@@H](CC(C)C)C(=O)NC(C)(C)C(=O)N[C@@H](CC(C)C)C(=O)N[C@@H](CC(C)C)C(=O)NC(C)(C)C(=O)NC(C)(C)C(=O)NCCC(=O)NC1CCC(N(C)C)CC1 (some centres unmarked) [Compound 5881] (Hexanoyl-P[Gly(octyl)]L[Aib]LL[Aib][Aib][βAla]-X1)")
592
>>> result_value("CCCCCCCC[C@H](NC(=O)[C@@H]1CCCN1C(=O)CCCCC)C(=O)N[C@@H](CC(C)C)C(=O)NC(C)(C)C(=O)N[C@@H](CC(C)C)C(=O)N[C@@H](CC(C)C)C(=O)NC(C)(C)C(=O)NC(C)(C)C(=O)NCCC(=O)NCCN(CCC)CCC [Compound 5888] (Hexanoyl-P[Gly(octyl)]L[Aib]LL[Aib][Aib][βAla]-X6)")
446

---

- Tested on: rat myoblast (L6-cells)
- PROCEDURE TEXT: Cytotoxicity assay on L6-cells (Alamar Blue)
- EXPERIMENTAL CONDITIONS: read-out: Cytotox L6; Cytotoxicity against rat myoblast cells (L6)
pIC50: −log10 of the molar value. Non-standard residues stand in square brackets, D forms with d. Residues, ends and D or L forms follow the SMILES beside them. *: point of attachment. Hexenoyl(2E,4S-Me) = CC[C@H](C)/C=C/C(=O)*; Leu(3R-OH) = CC(C)[C@@H](O)[C@H](N)C(=O)O; Gly(octyl) = CCCCCCCC[C@H](N)C(=O)O; X17 = C[C@@H](CN1CCOCC1)N*; Aib = CC(C)(N)C(=O)O; βAla = NCCC(=O)O
METRIC: pIC50

>>> result_value("CCCCCCCC[C@H](NC(=O)[C@@H]1CCCN1C(=O)/C=C/[C@@H](C)CC)C(=O)N[C@H](C(=O)NC(C)(C)C(=O)N[C@@H](CC(C)C)C(=O)N[C@@H](CC(C)C)C(=O)NC(C)(C)C(=O)NC(C)(C)C(=O)NCCC(=O)N[C@@H](C)CN1CCOCC1)[C@H](O)C(C)C [Compound 5573] ({Hexenoyl(2E,4S-Me)}-P[Gly(octyl)][Leu(3R-OH)][Aib]LL[Aib][Aib][βAla]-X17)")
6.13

---

- PROCEDURE TEXT: Cytotoxicity assay on L6-cells (Alamar Blue)
- EXPERIMENTAL CONDITIONS: rat, Cytotox L6, Cytotoxicity against rat myoblast cells (L6)
Non-standard residues stand in square brackets, D forms with d. Residues, ends and D or L forms follow the SMILES beside them. *: point of attachment. Hexenoyl(2E,4S-Me) = CC[C@H](C)/C=C/C(=O)*; Leu(3R-OH) = CC(C)[C@@H](O)[C@H](N)C(=O)O; NH((S)CH(Me)CH2NMe2) = C[C@@H](CN(C)C)N*; NH(2-morpholinoethyl) = C(CN1CCOCC1)N*; Pro(4S-Me) = C[C@@H]1CN[C@H](C(=O)O)C1; Gly(octyl) = CCCCCCCC[C@H](N)C(=O)O; Morpholide = C1CN(*)CCO1; Hexanoyl = CCCCCC(=O)*; Aib = CC(C)(N)C(=O)O; X12 = CCC/C=C/C(=O)*; βAla = NCCC(=O)O
molecules and their reported log10(IC50 at 70 h)
METRIC: log10(IC50 at 70 h) (log10 of the value in nM)

>>> result_value("CCCCCCCC[C@H](NC(=O)[C@H](C)NC(=O)CCCCC)C(=O)N[C@H](C(=O)NC(C)(C)C(=O)N[C@@H](CC(C)C)C(=O)N[C@@H](CC(C)C)C(=O)NC(C)(C)C(=O)NC(C)(C)C(=O)NCCC(=O)N[C@@H](C)CN(C)C)[C@@H](C)O [Compound 5605] (Hexanoyl-A[Gly(octyl)]T[Aib]LL[Aib][Aib][βAla]-{NH((S)CH(Me)CH2NMe2)})")
3.39
>>> result_value("CCCCCCCC[C@H](NC(=O)[C@@H]1CCCN1C(C)=O)C(=O)N[C@@H](CC(C)C)C(=O)NC(C)(C)C(=O)N[C@@H](CC(C)C)C(=O)N[C@@H](CC(C)C)C(=O)NC(C)(C)C(=O)NC(C)(C)C(=O)NCCC(=O)N[C@@H](C)CN(C)C [Compound 5638] (Ac-P[Gly(octyl)]L[Aib]LL[Aib][Aib][βAla]-{NH((S)CH(Me)CH2NMe2)})")
2.80
>>> result_value("CCC/C=C/C(=O)N1CCC[C@H]1C(=O)N[C@@H](CCCCCCCC)C(=O)N[C@H](C(=O)NC(C)(C)C(=O)N[C@@H](CC(C)C)C(=O)N[C@@H](CC(C)C)C(=O)NC(C)(C)C(=O)NC(C)(C)C(=O)NCCC(=O)N[C@@H](C)CN(C)C)[C@H](O)C(C)C [Compound 5514] (X12-P[Gly(octyl)][Leu(3R-OH)][Aib]LL[Aib][Aib][βAla]-{NH((S)CH(Me)CH2NMe2)})")
2.50
>>> result_value("CCCCCCCC[C@H](NC(=O)[C@@H]1CCCN1C(=O)CCCCC)C(=O)N[C@@H](CC(C)C)C(=O)NC(C)(C)C(=O)N[C@@H](CC(C)C)C(=O)N[C@@H](CC(C)C)C(=O)NC(C)(C)C(=O)NC(C)(C)C(=O)NCCC(=O)NCCN1CCOCC1 [Compound 5646] (Hexanoyl-P[Gly(octyl)]L[Aib]LL[Aib][Aib][βAla]-{NH(2-morpholinoethyl)})")
3.16
>>> result_value("CCCCCCCC[C@H](NC(=O)[C@@H]1C[C@H](C)CN1C(=O)/C=C/[C@@H](C)CC)C(=O)N[C@H](C(=O)NC(C)(C)C(=O)N[C@@H](CC(C)C)C(=O)N[C@@H](CC(C)C)C(=O)NC(C)(C)C(=O)NC(C)(C)C(=O)NCCC(=O)N[C@@H](C)CN(C)C)[C@H](O)C(C)C [Compound 5492] ({Hexenoyl(2E,4S-Me)}-[Pro(4S-Me)][Gly(octyl)][Leu(3R-OH)][Aib]LL[Aib][Aib][βAla]-{NH((S)CH(Me)CH2NMe2)})")
2.17
>>> result_value("CCCCCCCC[C@H](NC(=O)[C@@H]1CCCN1C(=O)/C=C/[C@@H](C)CC)C(=O)N[C@H](C(=O)NC(C)(C)C(=O)N[C@@H](CC(C)C)C(=O)N[C@@H](CC(C)C)C(=O)NC(C)(C)C(=O)NC(C)(C)C(=O)NCCC(=O)N1CCOCC1)[C@H](O)C(C)C [Compound 5572] ({Hexenoyl(2E,4S-Me)}-P[Gly(octyl)][Leu(3R-OH)][Aib]LL[Aib][Aib][βAla]-Morpholide)")
3.15

---

Item-by-item account of IC50 at 70 h
- PROCEDURE TEXT: Cytotoxicity assay on L6-cells (Alamar Blue)
- EXPERIMENTAL CONDITIONS: rat, Cytotox L6, Cytotoxicity against rat myoblast cells (L6)
Non-standard residues stand in square brackets, D forms with d. Residues, ends and D or L forms follow the SMILES beside them. *: point of attachment. Hexenoyl(2E,4S-Me) = CC[C@H](C)/C=C/C(=O)*; Leu(3R-OH) = CC(C)[C@@H](O)[C@H](N)C(=O)O; NH((S)CH(Me)CH2NMe2) = C[C@@H](CN(C)C)N*; Gly(octyl) = CCCCCCCC[C@H](N)C(=O)O; Hexanoyl = CCCCCC(=O)*; Aib = CC(C)(N)C(=O)O; βAla = NCCC(=O)O
METRIC: IC50 at 70 h (µM)

>>> result_value("CCCCCCCC[C@H](NC(=O)/C=C/[C@@H](C)CC)C(=O)N[C@H](C(=O)NC(C)(C)C(=O)N[C@@H](CC(C)C)C(=O)N[C@@H](CC(C)C)C(=O)NC(C)(C)C(=O)NC(C)(C)C(=O)NCCC(=O)N[C@@H](C)CN(C)C)[C@H](O)C(C)C [Compound 5586] ({Hexenoyl(2E,4S-Me)}-[Gly(octyl)][Leu(3R-OH)][Aib]LL[Aib][Aib][βAla]-{NH((S)CH(Me)CH2NMe2)})")
1.15
>>> result_value("CCCCCCCC[C@H](NC(=O)[C@@H]1CCCN1C(=O)CCCCC)C(=O)N[C@H](C(=O)N[C@@H](CC(C)C)C(=O)N[C@@H](CC(C)C)C(=O)NC(C)(C)C(=O)NCCC(=O)N[C@@H](C)CN(C)C)[C@@H](C)O [Compound 5599] (Hexanoyl-P[Gly(octyl)]TLL[Aib][βAla]-{NH((S)CH(Me)CH2NMe2)})")
6.95

Where do these numbers come from? They come from patent EP3345917A1.
